Molecular target: 14-3-3σ (Homo sapiens)
Construct: The full-length 14-3-3 isoforms were used in biophysical assays; His6 (cleaved yes); made in house; host or cells: Escherichia coli NiCo21(DE3)
Sequence (P31947 whole entry, canonical isoform): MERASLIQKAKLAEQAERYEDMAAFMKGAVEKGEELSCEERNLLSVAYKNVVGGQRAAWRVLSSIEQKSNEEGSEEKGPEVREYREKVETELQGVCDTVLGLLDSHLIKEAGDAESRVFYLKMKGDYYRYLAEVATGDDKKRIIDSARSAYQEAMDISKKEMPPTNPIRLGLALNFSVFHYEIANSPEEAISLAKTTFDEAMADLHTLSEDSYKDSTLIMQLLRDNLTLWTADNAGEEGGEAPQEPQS
Test: Isothermal titration calorimetry (ITC) under reducing conditions, 14-3-3σ
Format: binding
Conditions: FITC-labelled peptide titrated into 14-3-3σ, 18 injections of 2 µl, 25°C, 50 mM Tris pH 7.5, 150 mM NaCl, 5 mM MgCl2, 2 mM 2-mercaptoethanol, 0.05%(v/v) Tween-20
Readout kind: Kd (µM)
Answers are plain numbers, in µM.

# Kd of LLRSHpS542MPSAAC [SHN3pS542-FITC, N-terminally FITC-Ahx-labelled version of SHN3pS542, as used in the FP assay] = 4.8
